test system: Chenopodium album; test: Test of herbicidal activities (greenhouse pot method); format: in vivo; conditions: single dose 300 g ai./h, treated before/after germination, 15 days later, greenhouse pot
MEASUREMENT_LABEL: Herbicidal activity Chenopodium album (inhibition level)

Problem: Return the recorded Herbicidal activity Chenopodium album (inhibition level) value; entry: Cc1ccccc1C[S+]([O-])c1nc2cc(-n3nc(C)n(C(F)F)c3=O)c(F)cc2s1 (centres unmarked)
Solution: A (90 ≦ A ≦ 100%)

Problem: Return the recorded Herbicidal activity Chenopodium album (inhibition level) value; entry: CCOC(=O)CS(=O)(=O)c1nc2cc(-n3nc(C)n(C(F)F)c3=O)c(Cl)cc2s1
Solution: B (80 ≦ B < 90%)

Problem: Return the recorded Herbicidal activity Chenopodium album (inhibition level) value; entry: CCOC(=O)C(C)S(=O)(=O)c1nc2cc(-n3nc(C)n(C(F)F)c3=O)c(Cl)cc2s1 (centres unmarked)
Solution: B (80 ≦ B < 90%)

Problem: Return the recorded Herbicidal activity Chenopodium album (inhibition level) value; entry: CCCSc1nc2cc(-n3nc(C)n(C(F)F)c3=O)c(Br)cc2s1
Solution: B (80 ≦ B < 90%)

Others:
Problem: Return the recorded Herbicidal activity Chenopodium album (inhibition level) value; entry: CCC[S+]([O-])c1nc2cc(-n3nc(C)n(C(F)F)c3=O)c(F)cc2s1 (centres unmarked)
Solution: A (90 ≦ A ≦ 100%)

Problem: Return the recorded Herbicidal activity Chenopodium album (inhibition level) value; entry: CCCCSc1nc2cc(-n3nc(C(F)(F)F)n(C(F)F)c3=O)c(Cl)cc2s1
Solution: B (80 ≦ B < 90%)

Problem: Return the recorded Herbicidal activity Chenopodium album (inhibition level) value; entry: CCCS(=O)(=O)c1nc2cc(-n3nc(C)n(C(F)F)c3=O)c(Cl)cc2s1
Solution: B (80 ≦ B < 90%)

Problem: Return the recorded Herbicidal activity Chenopodium album (inhibition level) value; entry: Cc1nn(-c2cc3nc(SCc4ccc(F)cc4)sc3cc2Br)c(=O)n1C(F)F
Solution: C (60 ≦ C < 80%)

Problem: Return the recorded Herbicidal activity Chenopodium album (inhibition level) value; entry: CCOC(=O)C(C)Sc1nc2cc(-n3nc(C)n(C(F)F)c3=O)c(Cl)cc2s1 (centres unmarked)
Solution: B (80 ≦ B < 90%)

Problem: Return the recorded Herbicidal activity Chenopodium album (inhibition level) value; entry: Cc1nn(-c2cc3nc(SCn4cnc5ccccc5c4=O)sc3cc2F)c(=O)n1C(F)F
Solution: C (60 ≦ C < 80%)

---

test system: Echinochloa crusgalli; experiment: Test of herbicidal activities (greenhouse pot method); format: in vivo; details: Echinochloa crus-galli, 360 h; single dose 300 g ai./h, treated before/after germination, 15 days later, greenhouse pot; read-out: Herbicidal activity Echinochloa crusgalli (inhibition level)
MEASUREMENT_LABEL: inhibition at 300 g/ha

Known results for compounds:
Problem: Return the recorded inhibition at 300 g/ha value; entry: Cc1nn(-c2cc3nc(S(=O)(=O)Cc4ccccc4Cl)sc3cc2Cl)c(=O)n1C(F)F
Solution: < 50%

Problem: Return the recorded inhibition at 300 g/ha value; entry: Cc1nn(-c2cc3nc([S+]([O-])Cc4ccccc4)sc3cc2F)c(=O)n1C (centres unmarked)
Solution: 80 to 90%

Problem: Return the recorded inhibition at 300 g/ha value; entry: Cc1nn(-c2cc3nc([S+](C)[O-])sc3cc2F)c(=O)n1C (centres unmarked)
Solution: < 50%

Problem: Return the recorded inhibition at 300 g/ha value; entry: CCCS(=O)(=O)c1nc2cc(-n3nc(C)n(C)c3=O)c(F)cc2s1
Solution: 80 to 90%

Then this compound:
Problem: Return the recorded inhibition at 300 g/ha value; entry: CCOC(=O)CSc1nc2cc(-n3nc(C)n(C(F)F)c3=O)c(Cl)cc2s1
Solution: 90 to 100%
